System: TK-10 renal
Test: NCI tumour cell line growth inhibition, 48 h
ASSAY ENDPOINT: TGI

# COMPOUND, TESTED ON, TGI
records = [
    ("Cc1nc2ccccc2c(=O)[nH]1", "TK-10 renal", "> 100 µM"),
    ("Cc1ccc(NC(=O)/C(=N\\Nc2ccc([N+](=O)[O-])cc2[N+](=O)[O-])C2C(=O)NC(=O)NC2=O)cc1", "TK-10 renal", "> 100 µM"),
    ("COc1cc[nH]c1/C=C1\\C(=O)Nc2ccc(F)c(I)c21", "TK-10 renal", "> 25 µM"),
    ("Cc1ccc(S(N)(=O)=O)cc1", "TK-10 renal", "> 1000 µM"),
    ("COC(=O)c1c(C)cccc1CC1Cc2c(C)cccc2C1=O (stereo unspecified)", "TK-10 renal", "> 100 µM"),
]

For the compound shown here, COc1ccc2c3c(c(=O)n(C)c2c1OC)C=CC(C)(C)O3 , give the reported TGI.
> 100 µM
